FYI, the data here is from patent US20240132624A1.

targetSystem: T1, human FcRn/b2M (human, UniProt P61769 21-119, biotinylated)
T1 construct: bought recombinant biotinylated protein (ACRO FCM-H82W4 or Immunitrack ITF01); also called hFcRn; hFcRn/hb2M
measurementDescription: SPR pH 6.0
quantityMeasured: koff (s⁻¹)

For orientation, consider the following solved cases.
>>> valuereported("T026301082 (VHH, name in Kabat numbering, tagless) VHH: EVQLVESGGGVVQPGGSLRLSCAASTFTFSSYAMYWVRQAPGKGLEWVSAISSGGGSTDYADSVKGRFTISRDNSKNTLYLQMNSLRPEDTALYYCAADTLYTDLTSYSYWGQGTLVTVSS")
0.054
>>> valuereported("T026301094 (VHH, name in Kabat numbering, tagless) VHH: EVQLVESGGGVVQPGGSLRLSCAASTFTFSEYDMYWVRQAPGKGLEWVSAISQGGGSTDYADSVKGRFTISRDNSKNTLYLQMNSLRPEDTALYYCAADTLYTSLTSYSYWGQGTLVTVSS")
0.01

[A] T026301111 (VHH, name in Kabat numbering, tagless) VHH: EVQLVESGGGVVQPGGSLRLSCAASGFTFSEYAMYWVRQAPGKGLEWVSAISQGGGSTDYADSVKGRFTISRDNSKNTLYLQMNSLRPEDTALYYCAADTLYTSLTWYSYWGQGTLVTVSS
[B] T026301081 (VHH, name in Kabat numbering, tagless) VHH: EVQLVESGGGVVQPGGSLRLSCAASTFTFSSYAMYWVRQAPGKGLEWVSAISSGGGSTDYADSVKGRFTISRDNSKNTLYLQMNSLRPEDTALYYCAADTLYTSLTSYSYWGQGTLVTVSS
Problem: Given the listed records, identify the one among A and B with higher koff. Lab note: record the label of whichever item you select.
Solution: B
(B: 0.0088 s⁻¹, A: 0.0032 s⁻¹)
